biological target: Apelin receptor (Homo sapiens) (UniProt P35414); assay: APJ activation via beta-arrestin recruitment – CHO-K1 cells, PathHunter beta-arrestin, luminescence, primary screen (AID 2520); conditions: at 20 µM, 0% DMSO wells, 100% apelin;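 also: 0% = DMSO alone and 100% = apelin-13 at 10 nM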
Sequence (P35414 whole entry, looked up): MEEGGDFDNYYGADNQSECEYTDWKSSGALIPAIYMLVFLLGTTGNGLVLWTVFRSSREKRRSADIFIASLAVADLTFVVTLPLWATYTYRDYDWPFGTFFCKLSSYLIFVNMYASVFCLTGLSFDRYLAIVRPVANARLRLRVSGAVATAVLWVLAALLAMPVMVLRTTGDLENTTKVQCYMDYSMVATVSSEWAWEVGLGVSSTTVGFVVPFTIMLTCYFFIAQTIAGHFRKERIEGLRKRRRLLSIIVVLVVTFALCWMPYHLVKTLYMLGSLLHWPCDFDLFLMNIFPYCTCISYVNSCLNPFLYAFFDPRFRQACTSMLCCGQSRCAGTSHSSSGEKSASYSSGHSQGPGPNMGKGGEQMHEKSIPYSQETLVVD
The whole screen tested about 330,000 compounds, of which about 350 (0.11%) were called active.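 The calls were made as follows: active = activation more than six SD over the plate average, tested at 20 µM; inactive = the rest.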 The list comes from a sample in which actives are over-represented; it also holds close analogues and randomly drawn compounds.
Answer with one of the outcomes given here: true (1) = active, false (0) = inactive

As a guide, the following entries are already answered.
compound=Cc1ccnc(NS(=O)(=O)c2ccc(NC(=O)c3ccc(S(=O)(=O)N(C)C)cc3)cc2)n1 category_label="false (0)"
compound="c1ccc(C2CCC(N3CCC(N4CCCCC4)CC3)CC2)cc1 (centres undefined)" category_label="false (0)"
compound=NS(=O)(=O)c1ccc(CCNC(=O)COC(=O)COc2cccc(C(F)(F)F)c2)cc1 category_label="false (0)"
compound=CCN1C(=O)c2cccc3c(N)ccc1c23 category_label="true (1)"
compound=CC(=O)NC(=S)Nc1ccc(NC(=O)c2cccnc2)cc1 category_label="false (0)"
compound="CN1CCN(c2ncc3c(n2)CC(c2ccccc2F)CC3=O)CC1 (centres undefined)" category_label="false (0)"
compound=COc1ccccc1N(C)S(=O)(=O)c1ccc(Cl)c(C(=O)Nc2ccncc2)c1 category_label="false (0)"
compound="CSCCC(C(=O)NC1=NCCS1)N1C(=O)c2ccccc2C1=O (centres undefined)" category_label="false (0)"
compound="C=CCOc1ccc(C2/C(=C(\\O)c3c(C)[nH]c(C(=O)OC)c3C)C(=O)C(=O)N2CCN(C)C)cc1 (centres undefined)" category_label="false (0)"
compound=O=S(=O)(/C=C/c1ccccc1)N1CCNCC1 category_label="false (0)"

[in] For this compound, state the assay outcome: COc1ccc(C/C(N)=N/OC(=O)c2ccco2)cc1OC
[out] false (0)

Values compiled from PubChem BioAssay AID2520.
